- System: SF-539 CNS
- assayRemarks: NCI tumour cell line growth inhibition, 48 h
Recorded GI50 by entry

For orientation, consider the following solved cases.
Result for O=C(CC1(O)C(=O)Nc2c(Cl)ccc(Cl)c21)c1ccc(C2CC2)cc1 (centres undefined) , tested on SF-539 CNS, GI50: 0.751 µM

Case N#CC[C@H](C1CCCC1)n1cc(-c2ncnc3[nH]ccc23)cn1 , SF-539 CNS, GI50 recorded as 16.7 µM

Here C=C1C(=O)OC2CC3(C)OC3C3OC3C3=CC(OC3=O)C12 (centres undefined) was tested on SF-539 CNS, and its GI50 came to 4.43 µM

Continuing:
Tested on SF-539 CNS, the item Cc1cccnc1CNC1CC(NCc2ncccc2C)CC(NCc2ncccc2C)C1 (centres undefined) showed GI50 equal to 2.92 µM

Entry CON , SF-539 CNS data, GI50 value: > 100 µM

Entry CCN(CC)c1ccc2nc3c4ccccc4c(=NC(=O)c4ccccc4-c4c5ccc(N(CC)CC)cc5[o+]c5cc(N(CC)CC)ccc45)cc-3oc2c1 under SF-539 CNS had GI50 of 3.24 µM

Form: item C[C@@H]1CN2[C@H]3[C@@H]1CC[C@]31CCC(=O)O[C@]1(C)[C@@H]1CC[C@H]3CCC=C3[C@@H]12 ; test system SF-539 CNS; GI50: > 70 µM

The compound Cc1ccc(-c2cc(/C=N/O)on2)cc1 , tested on SF-539 CNS, showed GI50 of > 100 µM

Summary line: CCOc1cc(/C=N\NC(=O)N/N=C/c2ccc(O)c(OCC)c2)ccc1O , SF-539 CNS, reported GI50 = 1.42 µM

---

Quick reference for log10(TGI) among some compounds
- System: CCRF-CEM leukemia
- assayRemarks: NCI tumour cell line growth inhibition, 48 h
The common logarithm of TGI in µM is what is listed.

These recorded examples may help you get a feel for the data.
The recorded log10(TGI) for COc1ccc(C2C(Cl)C(=O)N2NC(=O)c2ccc(N)cc2)cc1OC (centres undefined) is 0.65

Query CN(C)CCOc1nc2ccccc2c2c1-c1ccc(Cl)cc1C2=O yields log10(TGI) of 0.39

Briefly, log10(TGI) measured for CC1OC(OC2C(O[C@@H]3C[C@@H]4CC[C@@H]5[C@H](CC[C@]6(C)[C@@H]7[C@H](C[C@@H]56)O[C@]5(CC[C@@H](C)CO5)[C@H]7C)[C@@]4(C)C[C@H]3O)OC(CO)C(OC3OC(CO)C(O)C(O)C3O)C2O)C(O)C(O)C1O (some centres undefined) : 0.57

What the record says about CC12OC3CC(O1)C1(C=O)C4CCC5(C)C(c6ccc(=O)oc6)CCC5(O)C4CCC1(C3)O2 (centres undefined) : log10(TGI) is 0.08

Record COc1ccc2c(c1)CC[C@@H]1[C@@H]2CC[C@]2(C)[C@@H](O)/C(=C/c3ccncc3)C[C@@H]12 . Reported log10(TGI): 1.91

The reported value for COc1ccc(-n2sc(=O)n(Cc3ccc(COC(=O)C(C)c4ccc(CC(C)C)cc4)cc3)c2=O)cc1 (centres undefined) in terms of log10(TGI) is 0.57

Short answer for O=C(CC1(O)C(=O)Nc2c(Cl)ccc(Cl)c21)c1ccc(C2CC2)cc1 (centres undefined) : log10(TGI) was 1.30

Measured log10(TGI) of Cc1cc(-c2nc3cc(F)ccc3s2)ccc1NC(=O)C(C)N (centres undefined) : 0.51

Input O=[N+]([O-])c1ccc(-c2ccccc2)c([As](=O)(O)O)c1 . Output log10(TGI): 1.60

Let's switch to this compound now.
The measured log10(TGI) associated with OC(c1ccccc1)c1c(-c2ccccc2)oc(-c2ccccc2)c1C(O)c1ccccc1 (centres undefined) reads 1.23

---

- Test system: MOLT-4 leukemia
- assayRemarks: NCI tumour cell line growth inhibition, 48 h; in the data active = GI50 below about 0.43 µM; inactive = the rest
Can you answer with just one of these options? label 1 for active, label 0 for inactive

Reference set, count: 8
### Prompt Please let me know the test result on file for C=C=[CH][Sn]([c]1ccccc1)([c]1ccccc1)[c]1ccccc1 .
### Response label 0

### Prompt Returns: the outcome recorded for COc1cc(C2C(C#N)=C(N)Oc3cc4c(cc32)OCO4)cc2c1OCO2 (configuration not stated) in this assay.
### Response label 0

### Prompt Test call, this molecule: CC[C@H](C)[C@H](NC(=O)C12CC(NC(C)=O)(C1)C2)C(=O)N(C)[C@H](C[C@@H](OC(C)=O)c1nc(C(=O)N[C@@H](Cc2ccccc2)C[C@H](C)C(=O)OC)cs1)C(C)C
### Response label 0

### Prompt Tell me the recorded outcome of this test for O=C(Nc1ccc(S(=O)(=O)NC2CCCCCC2)cc1)C(c1ccccc1)S(=O)(=O)c1ccc(F)cc1 (configuration not stated) .
### Response label 0

### Prompt For this molecule, state the assay outcome: C=C1C(=O)OC2CC3(C)OC3C3OC3C3=CC(OC3=O)C12 (configuration not stated)
### Response label 0

### Prompt Could you please tell me the result logged for Cc1cc2c(C(C)C)c(O)c(O)c(C=O)c2c(O)c1-c1c(C)cc2c(C(C)C)c(O)c(O)c(C=O)c2c1O (tested in a mixture with another compound) in this assay?
### Response label 0

### Prompt For CNCCOc1nc2c3cnccc3cc(-c3cc(OC)c(OC)c(OC)c3)c2c2ccncc12 , what call appears in the results of this test?
### Response label 1

### Prompt Write down the call the test reported for this molecule. Item: CC[O-].CC[O-].O=C([CH-]C(=O)c1ccccc1)c1ccccc1.O=C([CH-]C(=O)c1ccccc1)c1ccccc1.[Ti+4]
### Response label 0

---
### Prompt Per the assay record, what outcome was assigned to CN(NC(=O)CC(=O)NN(C)C(=S)c1ccc(Cl)cc1)C(=S)c1ccc(Cl)cc1 ?
### Response label 0

### Prompt Lab log entry: CS[C@@]1(C(=O)Nc2ccc3[nH]nc(-c4ccc(OC(C)C)nc4)c3c2)CCN(CC(=O)N2CC=C(c3ccc(-c4ncn(C)n4)cc3)CC2)C1 — outcome as called in the assay?
### Response label 0

### Prompt Each molecule tested received a call. Report the one for CN1CCN(c2ccc3nc4c(nc3c2C(F)(F)F)C(=O)c2ncccc2C4=O)CC1 .
### Response label 0

### Prompt Called result for CC(C)CNc1nc(N=[N+]=[N-])nc(NCC(C)C)n1
### Response label 0

### Prompt # fetch the recorded call for Oc1[nH]c2ccc(Cl)cc2c1/C=c1/ccc2c(c1)N=C(c1cc(F)cc(F)c1)N=2 here
### Response label 0

### Prompt Which outcome was assigned to O=C(NO)c1cnc(N2CCN(S(=O)(=O)c3ccc4ccccc4c3)CC2)nc1 in this test?
### Response label 1

### Prompt Just curious, what result did CCc1ccccc1-n1c(N)c(C#N)c(-c2ccc(OC)c(OC)c2)c(C#N)c1=O get here?
### Response label 0

### Prompt What was the test verdict on C[C@@H](Oc1cc(-c2cnn(C3CC4(CCCNC4)C3)c2)cnc1N)c1c(Cl)ccc(F)c1Cl (some centres not stated) ?
### Response label 0

### Prompt # fetch the recorded call for CCC[CH2][Sn]1([CH2]CCC)[O]C(=O)c2cc(C)ccc2[O]1 here
### Response label 1

---

TGI overview
- Test system: DMS 273 small cell lung
- assayRemarks: NCI tumour cell line growth inhibition, 48 h

Past entries and their recorded results:
Reported TGI of C[C@H](O)C(=O)SC[C@H](NC(=O)CC[C@@H](N)C(=O)O)C(=O)NCC(=O)O : > 100 µM

TGI for COc1cc(C2C(Cl)C(=O)N2NC(=O)Cc2ccccc2)ccc1O (stereo unspecified) is > 100 µM

response.value for NC(=O)CCC(NC(=O)C(F)(F)F)C(=O)O (stereo unspecified) (field: TGI) = > 100 µM

Recorded TGI (compound C=C1C(=O)OC2/C=C(\C)CC(O)/C=C(/CO)CC(OC(=O)/C(C)=C/C)C12 (stereo unspecified) ): 82.5 µM

Sample COc1ccc(C2C(Cl)C(=O)N2NC(=O)c2ccc(N)cc2)cc1OC (stereo unspecified) ; TGI observed: 11.8 µM

Recorded TGI (compound C[C@]12CCCC(=O)C1C[C@H](C(=O)O)CC2 (stereo partly specified) ): > 100 µM

Record CCCCCn1cnc2c1S(=O)(=O)N(C)C(NC(=O)c1ccccc1)=N2 . Reported TGI: > 100 µM

Recorded result, O=C(/N=C/c1c(O)c2ccccc2oc1=O)NC1CCCCC1 , TGI: > 100 µM

Consider COc1cccc(/C=C2\C(=O)N(C(=O)Cc3ccccc3)N=C2C)c1 . Its measured TGI is > 100 µM

Item: CC(C)Cc1cccc(C(C)C)c1NC(=O)CCC(=O)N/N=C1\C(=N/NC(=O)CCC(=O)Nc2c(C(C)C)cccc2C(C)C)C(c2ccc3c(c2)OCO3)Oc2ccccc21 (stereo unspecified) | TGI: > 100 µM

Next:
For reference, reported TGI for CCc1oc2ccc(OC)c3c2c1C=CC=C3 stands at > 100 µM

Provenance of the data: PubChem BioAssay (NCI)
